Collected pIC50 for Neprilysin (Rattus norvegicus, UniProt P07861) across several studies; compounds listed below.
To interpret pIC50, take it as minus log10 of a concentration measured in moles per litre.

Fill in the recorded pIC50 for this compound, with Neprilysin (Rattus norvegicus, UniProt P07861) as test system: `O=C(O)CCNC(=O)[C@@H](Cc1ccc(-c2ccccc2)cc1)NCP(=O)(O)O`
5.74

Proceed to `O=C(N[C@@H](Cc1ccc2ccccc2c1)C(=O)N1CCC[C@H]1C(=O)O)[C@H](S)Cc1ccccc1`
6.23

Proceed to O=C(O)C(Cc1ccccc1)NC(=O)[C@H](Cc1ccc2c(c1)oc1ccccc12)NCP(=O)(O)O (some centres not stated)
7.92

Proceed to CC(N[C@@H](Cc1ccc2c(c1)oc1ccccc12)C(=O)O)P(=O)(O)O (stereo in doubt; 40u)
4.55

Proceed to `O=C(N[C@H]1CCS[C@H]2CCC[C@@H](C(=O)O)N2C1=O)[C@@H](S)Cc1ccccc1`
8.05

Proceed to CC1(C)CCCC(NC(=O)[C@@H](S)Cc2ccccc2)C(=O)N1CC(=O)O (some centres not stated)
7.20

Proceed to `CC(C)[C@H](S)C(=O)NC1(C(=O)N[C@@H](Cc2c[nH]c3ccc(O)cc23)C(=O)O)CCCC1`
8.70

Proceed to `C[C@H](NC(=O)[C@@H](CS)Cc1ccccc1)C(=O)N1C[C@H](C2CCCCC2)C[C@H]1C(=O)O`
8.18

Proceed to `C[C@H](NC(=O)[C@@H](CS)Cc1ccccc1)C(=O)N1c2ccccc2C[C@H]1C(=O)O`
8.59

Proceed to O=C1NC(C(=O)N[C@H](CO)C(=O)O)CCCCCCC1CS (some centres not stated)
7.96

Proceed to `O=C(O)CN1C(=O)[C@@H](NC(=O)[C@@H](S)Cc2ccccc2)CCC[C@@H]1C1CCCC1`
5.78

Proceed to CC(C)C[C@H](NC(CCc1c[nH]c2ccccc12)P(=O)(O)O)C(=O)N[C@@H](Cc1c[nH]c2ccccc12)C(=O)O (some centres not stated)
6.25

Proceed to `C[C@H](NC(=O)[C@@H](CS)Cc1ccc(OCc2ccccc2)cc1)C(=O)N1CCC[C@@H]1C(=O)O`
7.40

Proceed to COP(=O)(O)CNC(Cc1ccc(-c2ccccc2)cc1)C(=O)NCCC(=O)O (configuration not stated)
6.52

Proceed to `CCOC(C)=O.O=C(N[C@H]1CS[C@H]2CCC[C@@H](C(=O)O)N2C1=O)[C@@H](S)Cc1ccccc1`
7.38

Proceed to O=C(O)[C@H](Cc1ccc2c(c1)oc1ccccc12)NC(CCc1cccc2cccnc12)P(=O)(O)O (stereo in doubt; 40m')
4.23

----------
Collected IC50 for Neprilysin (Rattus norvegicus, UniProt P07861) across several studies; compounds listed below.
With a cut-off of 60 nM, any IC50 strictly below it is called yes; any IC50 meeting it or above is called no.

Take the compound `O=C(O)[C@H]1CCC[C@@H](NC(=O)C2(CS)CCCC2)C1` and say whether its IC50 is less than 60 nM.
no

Proceed to `O=C(N[C@H]1CCC[C@H]2SC[C@@H](C(=O)O)N2C1=O)[C@@H](S)Cc1ccccc1`
yes

Proceed to O=C1c2ccccc2-c2ccc(CC(NCP(=O)(O)O)c3nnn[nH]3)cc21 (configuration not stated)
no

Proceed to `O=C(O)[C@H](Cc1ccc2c(c1)oc1ccccc12)NC(=O)[C@H](Cc1ccc2c(c1)oc1ccccc12)NCP(=O)(O)O`
yes

Proceed to `O=C(N[C@@H](Cc1ccc(-c2ccccc2)cc1)C(=O)O)[C@H](S)Cc1ccccc1`
no

Proceed to CC(C)[C@H](S)C(=O)NC1(C(=O)N[C@@H](Cc2ccc(O)cc2)C(=O)O)CC2CCC1C2 (some centres not stated)
yes

Proceed to O=P(O)(O)CNC(c1nnn[nH]1)C(c1ccccc1)c1ccccc1 (configuration not stated)
no

Proceed to CC(C)C[C@H](NC(CCc1ccccc1)P(=O)(O)O)C(=O)N[C@@H](Cc1c[nH]c2ccccc12)C(=O)O (some centres not stated)
no

Proceed to `O=C(NCc1ccccc1)[C@H](Cc1ccc(-c2ccccc2)cc1)NCP(=O)(O)O`
no

Proceed to CS(=O)(=O)CCCNC(=O)C1CCCCCCC(CS)C(=O)N1 (configuration not stated)
no

Proceed to `O=C(N[C@@H](Cc1ccc(-c2ccccc2)cc1)C(=O)N1CCC[C@H]1C(=O)O)[C@@H](S)Cc1ccccc1`
no

Proceed to `O=C(Nc1ccc(S(=O)(=O)N[C@H](Cc2c[nH]c3ccccc23)C(=O)O)cc1)c1ccc(Br)cc1`
no

Proceed to COc1ccc(CCC(N[C@@H](Cc2ccc3c(c2)oc2ccccc23)C(=O)O)P(=O)(O)O)cc1OC (stereo in doubt; 40e')
no

Proceed to `CC1(C)CCC[C@H](NC(=O)[C@@H](S)Cc2ccccc2)C(=O)N1CC(=O)O`
no

Proceed to `CS(=O)(=O)N[C@@H](CCCCN)C(=O)N[C@@H](Cc1ccccc1)P(=O)(O)CC1(C(=O)N[C@@H](Cc2c[nH]c3ccccc23)C(=O)O)CCCC1`
no

Proceed to `O=C(O)[C@H](Cc1ccc(-c2ccccc2)cc1)NC(=O)[C@@H](S)Cc1ccccc1`
no

Proceed to `Cc1ccc(-c2ccc(S(=O)(=O)N[C@H](Cc3c[nH]c4ccccc34)C(=O)O)s2)cc1`
no

----------
Collected IC50 for Neprilysin (Rattus norvegicus) across several studies; compounds listed below.
Target: Neprilysin (Rattus norvegicus)
Sequence (P07861 whole entry): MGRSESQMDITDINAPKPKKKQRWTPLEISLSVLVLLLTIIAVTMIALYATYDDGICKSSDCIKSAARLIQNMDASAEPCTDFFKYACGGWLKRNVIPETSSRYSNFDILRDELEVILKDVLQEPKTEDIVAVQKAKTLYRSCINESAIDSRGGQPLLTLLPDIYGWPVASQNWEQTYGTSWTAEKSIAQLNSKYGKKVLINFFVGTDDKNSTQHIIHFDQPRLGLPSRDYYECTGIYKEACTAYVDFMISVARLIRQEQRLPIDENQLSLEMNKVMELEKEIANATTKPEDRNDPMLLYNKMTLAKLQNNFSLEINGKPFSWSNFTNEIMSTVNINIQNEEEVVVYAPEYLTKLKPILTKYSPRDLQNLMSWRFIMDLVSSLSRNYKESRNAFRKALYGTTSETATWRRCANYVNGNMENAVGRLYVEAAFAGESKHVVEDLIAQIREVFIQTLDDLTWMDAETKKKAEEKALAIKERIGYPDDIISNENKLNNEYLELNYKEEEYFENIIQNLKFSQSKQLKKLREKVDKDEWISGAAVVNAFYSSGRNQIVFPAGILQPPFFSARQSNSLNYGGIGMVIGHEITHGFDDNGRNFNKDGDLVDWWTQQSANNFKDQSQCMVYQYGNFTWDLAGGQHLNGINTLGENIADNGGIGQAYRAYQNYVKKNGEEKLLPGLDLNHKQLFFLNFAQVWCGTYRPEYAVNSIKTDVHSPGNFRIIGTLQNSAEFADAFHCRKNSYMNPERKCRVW
# value in nM; strip the unit string

// IC50 lookup, key: O=C(N[C@H](C(=O)O)c1ccccc1)C(Cc1ccc(-c2ccccc2)cc1)NCP(=O)(O)O (some centres undefined)
2

Proceed to `C[C@@H](C(=O)O)N1CCCC[C@H](NC(=O)[C@@H](S)Cc2ccccc2)C1=O`
92

Proceed to `CC(C)[C@H](NCP(=O)(O)O)C(=O)N[C@@H](Cc1ccc(-c2ccccc2)cc1)C(=O)O`
3

Proceed to `O=C(N[C@H]1CCC[C@H]2CCC[C@@H](C(=O)O)N2C1=O)[C@@H](S)Cc1ccccc1`
25

Proceed to COCCOCC(CC1(C(=O)N[C@H]2CC[C@@H](C(=O)O)CC2)CCCC1)C(=O)Oc1ccc2c(c1)CCC2 (some centres undefined)
28

Proceed to `CC(C)[C@H](S)C(=O)NC1(C(=O)N[C@@H](Cc2ccc(-c3ccccc3)cc2)C(=O)O)CCCC1`
16

Proceed to `O=C(O)CN1C(=O)[C@@H](NC(=O)[C@@H](S)Cc2ccccc2)CCC[C@@H]1CCO`
31

Proceed to `C[C@H](NC(=O)[C@H](Cc1ccccc1)[C@H](C)S)C(=O)N1CCC[C@H]1C(=O)O`
32

Proceed to `C[C@H](NC(=O)[C@@H](CS)Cc1ccccc1)C(=O)N1Cc2ccccc2C[C@H]1C(=O)O`
3.9

Proceed to `O=C(O)CN1C(=O)[C@@H](NC(=O)[C@@H](S)Cc2ccccc2)CCCC12CCCC2`
426

Proceed to O=C(O)CCNC(=O)C(CCP(=O)(O)O)Cc1ccc(-c2ccccc2)cc1 (centres undefined)
1000

Proceed to `CC(C)[C@H](S)C(=O)NC(C)(C)C(=O)N[C@@H](Cc1ccc(O)cc1)C(=O)O`
9.2

Proceed to O=C(O)C(CCc1ccccc1)N[C@@H](Cc1ccccc1)C(=O)NC[C@H](O)C(=O)O (some centres undefined)
11

Proceed to O=C(O)CCNC(=O)C(Cc1ccc(-c2ccccc2)cc1)SCP(=O)(O)O (centres undefined)
797

Proceed to `O=C(N[C@H]1CCCCN([C@@H](Cc2ccccc2)C(=O)O)C1=O)[C@@H](S)Cc1ccccc1`
32

Proceed to O=P(O)(O)CNC(Cc1ccc2c(c1)oc1ccccc12)c1nnn[nH]1 (centres undefined)
114

Proceed to O=C1NC(C(=O)Nc2ccccc2)CCCCCCC1CS (centres undefined)
551

Proceed to `O=C(O)[C@H](Cc1ccc2c(c1)oc1ccccc12)NCP(=O)(O)O`
2300

Proceed to `CC(C)[C@H](S)C(=O)NC1(C(=O)N[C@@H](Cc2c[nH]c3ccccc23)C(=O)O)CCCC1`
2.1
